Measurement target: Tubulin (Bos taurus) (UniProt Q6B856+Q862L2+Q862F3)
Assay method text: Inhibition of [3H]colchicine binding to bovine brain tubulin at 5 uM after 20 mins relative to control
Reported values of inhibition for individual entries
Quick note: give the figure in %, leave out the unit.

[[record]]
smiles_input = "COc1nc2sc(C)cn2c1/C=C1/C(=O)Nc2ccccc21"
measurement_target = "Tubulin (Bos taurus) (UniProt Q6B856+Q862L2+Q862F3)"
recorded_endpoint = "inhibition"
observed_value = 39

[[record]]
smiles_input = "O=C1Nc2c(ccc3ccccc23)C1=Cc1c(-c2ccncc2)nc2sccn12"
measurement_target = "Tubulin (Bos taurus) (UniProt Q6B856+Q862L2+Q862F3)"
recorded_endpoint = "inhibition"
observed_value = 25


Notebook: Cc1nc2sccn2c1-c1nc2sccn2c1C=C1C(=O)Nc2cc(Cl)ccc21 , inhibition read as 15

Documented inhibition of O=C1Nc2c(ccc3ccccc23)/C1=C\c1c(-c2cccnc2)nc2sccn12 : 31
